These entries and their values trace back to patent US20180171001A1.

measurement.target: Env of HIV-1 strain PVO.4 (HIV-1)
test.protocol: cell-based or functional assay
measurement.kind: neutralization IC50 (mg/L)
Give the number; mg/L is assumed, so skip it.

{"binder": "γ15κ3 (antibody, V domains shown) VH: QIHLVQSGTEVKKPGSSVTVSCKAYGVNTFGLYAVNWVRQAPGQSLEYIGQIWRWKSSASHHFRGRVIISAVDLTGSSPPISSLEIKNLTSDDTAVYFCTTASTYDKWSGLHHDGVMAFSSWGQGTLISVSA VL: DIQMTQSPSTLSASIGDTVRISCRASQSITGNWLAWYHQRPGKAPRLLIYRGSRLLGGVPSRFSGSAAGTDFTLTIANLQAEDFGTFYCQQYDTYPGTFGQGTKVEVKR", "neutralization IC50 / mg/L": 5.32}

Kindly consider the entry below.
Look up neutralization IC50 for this binder: 8ANC3040 (antibody, V domains shown) VH: QIHLVQSGTEVKKPGSSVTVSCKAYGVNTFGLYAVNWVRQAPGQSLEYIGQIWRWKSSASHHFRGRVLISAVDLTGSSPPISSLEIKNLTSDDTAVYFCTTTSTYDQWSGLHHDGVMAFSSWGQGTLISVSA VL: DIQMTQSPSTLSASIGDTVRISCRASQSITGNWVAWYQQRPGKAPRLLIYRGAALLGGVPSRFSGSAAGTDFTLTIGNLQAEDFGTFYCQQYDTYPGTFGQGTKVEVKR
0.284
